- systemTested: human CXCR3 (N-delta 4) (Homo sapiens)
- Construct: CD8 leader; Flag tag; expressed in transfected cells; membranes used
- assayNotes: Human CXCR3 (N-delta 4) scintillation proximity assay (SPA), [125I] IP-10 binding
- statedConditions: IC50 rating; Ba/F3-hCXCR3 (N-delta 4) membranes, 25 pM [125I] IP-10
Parameter IC50: see the listing below.
readoutLabel: IC50

compound="CC1CN(c2ncc(C(=O)NCc3ccc(F)c(F)c3)cc2Cl)CCN1C1CCN(Cc2ccc([N+](=O)[O-])cc2)CC1 (stereo not shown) [compound 187]" result="< 25 nM"
compound="COCCNC(=O)c1cnc(N2CCN(C3CCN(Cc4ccc(Cl)cc4)CC3)[C@@H](CC(C)C)C2)c(Cl)c1 [compound 195]" result="> 100 nM"
compound="O=C(NCc1ccc(Cl)cc1)c1cnc(N2CCN(C3CCN(Cc4ccc(Cl)c(F)c4)CC3)CC2)c(Cl)c1 [compound 161]" result="25 to 100 nM"
compound="CCNC(=O)c1cnc(N2CCN(C3CCN(C(=O)c4ccc(C#N)cc4)CC3)[C@@H](CC)C2)c(Cl)c1 [compound 269]" result="25 to 100 nM"
compound="N#Cc1ccc(CN2CCC(N3CCN(c4ncc(C(=O)NCc5cc(Cl)cc(Cl)c5)cc4Cl)CC3)CC2)cc1 [compound 40]" result="> 100 nM"
compound="CC[C@H]1CN(c2ncc(CN)cc2Cl)CCN1C1CCN(Cc2ccc(Cl)cc2)CC1 [compound 413]" result="25 to 100 nM"
compound="CC[C@H]1CN(c2ncc(C(=O)NC)cc2Cl)CCN1C1CCN(C(=O)c2ccc(Br)cc2)CC1 [compound 245]" result="< 25 nM"
compound="CC[C@H]1CN(c2ncc(C(=N)N)cc2Cl)CCN1C1CCN(C(=O)c2ccc(Cl)nc2N)CC1 [compound 442]" result="> 100 nM"
compound="O=C(NCc1ccccc1)c1cnc(N2CCN(C3CCN(Cc4ccc(Br)cc4)CC3)CC2)c(Cl)c1 [compound 39]" result="> 100 nM"
compound="O=C(NCc1ccc(Cl)cc1F)c1cnc(N2CCN(C3CCN(Cc4ccc(Br)cc4)CC3)CC2)c(Cl)c1 [compound 105]" result="25 to 100 nM"
compound="CC[C@H]1CN(c2ncc(C(C)O)cc2Cl)CCN1C1CCN(Cc2ccc(Cl)cc2F)CC1 (stereo partly shown) [compound 433]" result="> 100 nM"
compound="CNC(=O)c1cnc(N2CCN(C3CCN(Cc4ccc(Cl)cc4)CC3)[C@@H](C)C2)c(Br)c1 [compound 237]" result="< 25 nM"
compound="O=C(NCc1ccc(F)c(F)c1)c1cnc(N2CCN(C3CCN(CCOc4ccc(F)cc4)CC3)CC2)c(Cl)c1 [compound 346]" result="> 100 nM"
compound="CC[C@H]1CN(c2ccc(CN)cn2)CCN1C1CCN(Cc2ccc(Cl)cc2)CC1 [compound 452]" result="> 100 nM"
compound="CCNC(=O)c1cnc(N2CCN(C3CCN(C(=O)c4ccc(Cl)cc4)CC3)[C@@H](C(C)C)C2)c(Cl)c1 [compound 211]" result="> 100 nM"
compound="O=C(NCc1ccc(Cl)c(Cl)c1)c1cnc(N2CCN(C3CCN(Cc4ccc(F)cc4F)CC3)CC2)c(Cl)c1 [compound 90]" result="> 100 nM"
compound="CC[C@H]1CN(c2ncc(CN)cc2Cl)CCN1C1CCN(Cc2ccc(Cl)cc2F)CC1 [compound 425]" result="25 to 100 nM"
compound="CC[C@H]1CN(c2ncc(CNC3=NCCN3)cc2Cl)CCN1C1CCN(Cc2ccc(Cl)cc2F)CC1 [compound 431]" result="25 to 100 nM"
compound="O=C(NCc1ccc(Cl)cc1Cl)c1cnc(N2CCN(C3CCN(Cc4ccc(F)c(F)c4)CC3)CC2)c(Cl)c1 [compound 141]" result="25 to 100 nM"
compound="C[C@H]1CN(c2ncc(C(=O)N3CCC3)cc2Cl)CCN1C1CCN(Cc2ccc(Cl)cc2)CC1 [compound 348]" result="> 100 nM"
compound="O=C(NCc1ccc(Br)cc1)c1cnc(N2CCN(C3CCN(Cc4ccc(Br)cc4F)CC3)CC2)c(Cl)c1 [compound 36]" result="> 100 nM"
compound="C[C@H]1CN(c2ncc(C(=O)Nc3ccc(F)c(F)c3)cc2Cl)CCN1C1CCN(Cc2ccc(Cl)cc2)CC1 [compound 261]" result="< 25 nM"
compound="CCNC(=O)OCc1cnc(N2CCN(C3CCN(Cc4ccc(Cl)cc4F)CC3)[C@@H](CC)C2)c(Cl)c1 [compound 382]" result="< 25 nM"
compound="N#Cc1ccc(CN2CCC(N3CCN(c4ncc(C(=O)NCc5ccccc5)cc4Cl)CC3)CC2)cc1 [compound 21]" result="> 100 nM"
compound="CCNC(=O)c1cc(Cl)c(N2CCN(C3CCN(Cc4ccc(Cl)cc4F)CC3)[C@@H](CC)C2)[n+]([O-])c1 [compound 229]" result="< 25 nM"
compound="CC[C@H]1CN(c2ncc(CNC(=O)Nc3ccc(F)c(F)c3)cc2Cl)CCN1C1CCN(Cc2ccc(Cl)cc2)CC1 [compound 400]" result="< 25 nM"
compound="N#Cc1ccc(CN2CCC(N3CCN(c4ncc(C(=O)NCc5ccc(C(F)(F)F)cc5)cc4Br)CC3)CC2)cc1 [compound 324]" result="25 to 100 nM"
compound="CC[C@H]1CN(c2ncc(C(=O)OC)c(N)c2Cl)CCN1C1CCN(Cc2ccc(Cl)cc2F)CC1 [compound 441]" result="> 100 nM"
compound="COc1ccc(CN2CCC(N3CCN(c4ncc(C(=O)NCc5ccc(C(F)(F)F)cc5)cc4Br)CC3)CC2)cc1 [compound 322]" result="25 to 100 nM"
compound="CCNC(=O)c1cnc(N2CCN(C3CCN(C(C)(C)c4ccc(Cl)cc4)CC3)[C@@H](C)C2)c(Cl)c1 [compound 326]" result="> 100 nM"
compound="O=C(NCc1ccc(C(F)(F)F)cc1)c1cnc(N2CCN(C3CCN(Cc4ccc(Cl)c(F)c4)CC3)CC2)c(Cl)c1 [compound 73]" result="> 100 nM"

* * *

Parameter pIC50: see the listing below.
- systemTested: human CXCR3 (N-delta 4) (Homo sapiens)
- Construct: CD8 leader; Flag tag; expressed in transfected cells; membranes used
- Sequence (P49682 5-368 limits assumed): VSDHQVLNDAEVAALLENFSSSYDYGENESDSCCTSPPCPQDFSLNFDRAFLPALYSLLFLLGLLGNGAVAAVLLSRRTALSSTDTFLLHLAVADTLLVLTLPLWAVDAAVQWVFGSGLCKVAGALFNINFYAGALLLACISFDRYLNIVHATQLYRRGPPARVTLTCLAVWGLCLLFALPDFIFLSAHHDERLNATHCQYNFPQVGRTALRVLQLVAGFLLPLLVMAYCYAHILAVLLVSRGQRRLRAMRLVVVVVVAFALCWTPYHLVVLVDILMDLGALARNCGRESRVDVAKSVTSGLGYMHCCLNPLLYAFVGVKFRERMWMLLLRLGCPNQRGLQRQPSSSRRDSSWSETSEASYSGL
- assayNotes: Human CXCR3 (N-delta 4) scintillation proximity assay (SPA), [125I] IP-10 binding
- statedConditions: IC50 rating; Ba/F3-hCXCR3 (N-delta 4) membranes, 25 pM [125I] IP-10
pIC50: −log10 of the molar value.
readoutLabel: pIC50

molecule=O=C(NCc1ccc(Cl)cc1F)c1cnc(N2CCN(C3CCN(Cc4ccc([N+](=O)[O-])cc4)CC3)CC2)c(Cl)c1 systemtested="human CXCR3 (N-delta 4) (Homo sapiens)" result="7.00 to 7.60"
molecule=CC[C@H]1CN(c2ncc(C(N)=O)cc2Cl)CCN1C1CCN(Cc2ccc(Cl)cc2F)CC1 systemtested="human CXCR3 (N-delta 4) (Homo sapiens)" result="> 7.60"
molecule=O=C(NCc1ccc(F)c(F)c1)c1cnc(N2CCN(C3CCN(Cc4ccc(Cl)c(F)c4)CC3)CC2)c(Cl)c1 systemtested="human CXCR3 (N-delta 4) (Homo sapiens)" result="7.00 to 7.60"
molecule=N#Cc1ccc(CN2CCC(N3CCN(c4ncc(C(=O)NCc5ccc(Cl)cc5F)cc4Cl)CC3)CC2)cc1 systemtested="human CXCR3 (N-delta 4) (Homo sapiens)" result="7.00 to 7.60"
molecule="CNC(=O)c1cnc(N2CCN(C3CCN(Cc4ccc(Cl)cc4)CC3C)CC2)c(Cl)c1 (stereo not shown)" systemtested="human CXCR3 (N-delta 4) (Homo sapiens)" result="7.00 to 7.60"
molecule="C[C@H]1CN(c2ncc(C(=O)NCc3ccc(Cl)c(Cl)c3)cc2Cl)CCN1C1CCN(C(=O)c2ccc(C#N)cc2)CC1 [compound 266]" systemtested="human CXCR3 (N-delta 4) (Homo sapiens)" result="> 7.60"
molecule=CC[C@H]1CN(c2ncc(CNC)cc2Cl)CCN1C1CCN(Cc2ccc(Cl)cc2F)CC1 systemtested="human CXCR3 (N-delta 4) (Homo sapiens)" result="> 7.60"
molecule=CC[C@H]1CN(c2ncc(C(=O)NC(C)C)cc2Cl)CCN1C1CCN(Cc2ccc(Cl)cc2)CC1 systemtested="human CXCR3 (N-delta 4) (Homo sapiens)" result="> 7.60"
molecule="CCNC(=O)c1cnc(N2CCN(C3CCN(Cc4ccc(Cl)cc4F)CC3)C(CC(F)(F)F)C2)c(Cl)c1 (stereo not shown)" systemtested="human CXCR3 (N-delta 4) (Homo sapiens)" result="7.00 to 7.60"
molecule=CC[C@H]1CN(c2ncc(C(=O)NC(C)C)cc2Cl)CCN1C1CCN(C(=O)c2ccc(Cl)cc2)CC1 systemtested="human CXCR3 (N-delta 4) (Homo sapiens)" result="7.00 to 7.60"
molecule=Cc1cc(NC(=O)c2cnc(N3CCN(C4CCN(Cc5ccc(Cl)cc5)CC4)[C@@H](C)C3)c(Cl)c2)no1 systemtested="human CXCR3 (N-delta 4) (Homo sapiens)" result="7.00 to 7.60"
molecule=COc1ccc(CNC(=O)c2cnc(N3CCN(C4CCN(Cc5ccc(C#N)cc5)CC4)CC3)c(Cl)c2)cc1 systemtested="human CXCR3 (N-delta 4) (Homo sapiens)" result="< 7.00"
molecule=O=C(NCCOc1ccccc1)c1cnc(N2CCN(C3CCN(Cc4ccc([N+](=O)[O-])cc4)CC3)CC2)c(Cl)c1 systemtested="human CXCR3 (N-delta 4) (Homo sapiens)" result="7.00 to 7.60"
molecule="CNC(=O)c1cnc(N2CCN(C3CCN(Cc4ccc(Cl)cc4)C(C)C3)[C@@H](C)C2)c(Cl)c1 (stereo partly shown) [compound 252]" systemtested="human CXCR3 (N-delta 4) (Homo sapiens)" result="> 7.60"
molecule=C[C@H]1CN(c2ncc(C(=O)NCc3ccc(F)c(F)c3)cc2Cl)CCN1C1CCN(CCOc2ccc(Cl)cc2)CC1 systemtested="human CXCR3 (N-delta 4) (Homo sapiens)" result="7.00 to 7.60"
molecule=O=C(NC1CCCC1)c1cnc(N2CCN(C3CCN(Cc4ccc(Cl)c(F)c4)CC3)CC2)c(Cl)c1 systemtested="human CXCR3 (N-delta 4) (Homo sapiens)" result="< 7.00"
molecule="CC[C@H]1CN(c2c(Cl)cc(C(=O)OC)c[n+]2[O-])CCN1C1CCN(Cc2ccc(Cl)cc2F)CC1 [compound 458]" systemtested="human CXCR3 (N-delta 4) (Homo sapiens)" result="7.00 to 7.60"
molecule=CC[C@H]1CN(c2ncc(C(=O)NC)cc2Cl)CCN1C1CCN(Cc2ccc(Br)cc2F)CC1 systemtested="human CXCR3 (N-delta 4) (Homo sapiens)" result="> 7.60"
molecule=CNC(=O)c1cnc(N2CCN(C3CCN(Cc4cccc(C)c4)CC3)[C@@H](C)C2)c(Cl)c1 systemtested="human CXCR3 (N-delta 4) (Homo sapiens)" result="< 7.00"
molecule=CC[C@H]1CN(c2ncc(C(=O)NC3CC3)cc2C)CCN1C1CCN(C(=O)c2ccc(Cl)cc2)CC1 systemtested="human CXCR3 (N-delta 4) (Homo sapiens)" result="> 7.60"
molecule=O=C(NCc1ccc(Cl)c(Cl)c1)c1cnc(N2CCN(C3CCN(Cc4ccc(F)cc4)CC3)CC2)c(Cl)c1 systemtested="human CXCR3 (N-delta 4) (Homo sapiens)" result="7.00 to 7.60"
molecule=O=C(NCc1cc(Cl)cc(Cl)c1)c1cnc(N2CCN(C3CCN(Cc4ccc([N+](=O)[O-])cc4)CC3)CC2)c(Cl)c1 systemtested="human CXCR3 (N-delta 4) (Homo sapiens)" result="< 7.00"
molecule=C[C@@H](NC(=O)c1cnc(N2CCN(C3CCN(Cc4ccc(Cl)cc4)CC3)[C@@H](C)C2)c(Cl)c1)C1CCCCC1 systemtested="human CXCR3 (N-delta 4) (Homo sapiens)" result="> 7.60"
molecule=CC[C@H]1CN(c2ncc(C(=O)NC3CC3)cc2Cl)CCN1C1CCN(Cc2ccc(Cl)cc2F)CC1 systemtested="human CXCR3 (N-delta 4) (Homo sapiens)" result="> 7.60"
molecule=CNC(=O)c1cnc(N2CCN(C3CCN(Cc4ccc(Br)cc4F)CC3)[C@@H](C)C2)c(Cl)c1 systemtested="human CXCR3 (N-delta 4) (Homo sapiens)" result="> 7.60"
molecule=O=C(NCCOc1ccccc1)c1cnc(N2CCN(C3CCN(Cc4ccc(Cl)cc4)CC3)CC2)c(Cl)c1 systemtested="human CXCR3 (N-delta 4) (Homo sapiens)" result="7.00 to 7.60"
molecule=N#Cc1ccc(C(=O)N2CCC(N3CCN(c4ncc(C(=O)NCc5ccc(Cl)cc5F)cc4Cl)CC3)CC2)cc1 systemtested="human CXCR3 (N-delta 4) (Homo sapiens)" result="< 7.00"
molecule=O=C(NCc1ccc(F)c(F)c1)c1cnc(N2CCN(C3CCN(Cc4ccc([N+](=O)[O-])cc4)CC3)CC2)c(Br)c1 systemtested="human CXCR3 (N-delta 4) (Homo sapiens)" result="> 7.60"
